Attribution: ChEMBL document CHEMBL1201862

Molecular target: UniProtKB Q99705
Sequence (Q99705 whole entry): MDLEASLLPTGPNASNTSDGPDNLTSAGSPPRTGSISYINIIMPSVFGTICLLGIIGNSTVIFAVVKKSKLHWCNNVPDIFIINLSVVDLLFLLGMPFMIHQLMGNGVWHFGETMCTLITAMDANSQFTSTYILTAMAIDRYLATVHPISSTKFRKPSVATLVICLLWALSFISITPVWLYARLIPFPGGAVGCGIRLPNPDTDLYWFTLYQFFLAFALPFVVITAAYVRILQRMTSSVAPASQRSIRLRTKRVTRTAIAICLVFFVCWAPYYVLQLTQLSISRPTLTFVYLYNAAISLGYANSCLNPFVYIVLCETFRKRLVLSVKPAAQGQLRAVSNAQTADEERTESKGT
Assay: Fluorescence-based counterscreen for antagonists of the G-protein coupled receptor 7 (GPR7): cell-based high throughput dose response assay to identify antagonists of the melanin-concentrating hormone receptor 1 (MCHR1).
Type: functional
Active and inactive are the calls of the source. Rule as the data show it: active = IC50 of 10 µM or less and inactive = more.
TEST READOUT: IC50

The cases that follow already have their IC50 on record.
MOLECULE	READING
CCOC(=O)CSc1nnc(-c2ccc(S(=O)(=O)NCc3cccs3)cc2)o1	> 43.8 µM (not active)
CCCN(CCC)CCOc1cc(C)ccc1C(C)C	6.6 µM (active)
O=[N+]([O-])c1ccc(N2CCN(Cc3ccccc3)CC2)nc1	22.8 µM (not active)

Kindly consider the entry below.
**Q:** Lab note: need IC50 for O=C(c1ccc2c(c1)OCO2)N(CC1CCCO1)C1(C(=O)NC2CCCC2)CCCCC1 (centres undefined) on UniProtKB Q99705, anyone have it?
**A:** > 43.8 µM (not active)
